Cited source for all entries: patent US20230035798A1

# Experimental System: T1, human LIGHT (TNFSF14), full length, membrane-bound (214E allele) (human, UniProt O43557 1-240)
# T1 construct: also called membrane LIGHT; human membrane LIGHT
# T1 sequence (O43557 whole entry K214E): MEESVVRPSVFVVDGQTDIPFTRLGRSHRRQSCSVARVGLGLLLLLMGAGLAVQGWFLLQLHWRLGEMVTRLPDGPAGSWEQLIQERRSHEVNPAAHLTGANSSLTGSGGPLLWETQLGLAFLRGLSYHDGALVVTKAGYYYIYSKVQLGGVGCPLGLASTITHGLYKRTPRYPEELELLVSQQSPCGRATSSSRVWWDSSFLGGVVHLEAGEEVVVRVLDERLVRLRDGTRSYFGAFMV
# Protocol Notes: membrane LIGHT on cells, as for Table 9
Rule: measured Kd below 0.2 nM gets T; anything equal to or greater than 0.2 nM gets F.

Threshold test, Kd < 0.2 nM: 3C10 (antibody, human IgG4, V domains shown, chimeric human IgG4 (S-to-P, L-to-E at 248), human CL; also called Parental 3C10) VH: EVQLQQSGAELVRPGASVTLSCKASDYTFTDSEIHWVKQTPVHGLEWIGEIDPETGGTAYNQKFKGKATLTADKSSSTAYMELRSLTSEDSAVYYCSRETDYFFDYWGQGTTLTVSS VL: DVVMTQTPAIMSASPGEKVTMTCSASSSVSYMYWYQQKPGSSPRLLIYDTSNLASGVPVRFSGSGSGTSYSLTISRMEAEDAATYYCQQWSSYPLTFGAGTKLELK
T

Threshold test, Kd < 0.2 nM: 3A07 (antibody, human IgG4, V domains shown, chimeric human IgG4 (S-to-P, L-to-E at 248), human CL; also called Parental 3A07) VH: QVQLQQSGAELVRPGAPVTLSCKASDYTFTDSEIHWVKQTPVHGLEWIGEIDPETGGTAYNQKFKGKATLTADKSSSTAYMELRSLTSEDSAVYYCSRETDYFFDYWGQGTTLTVSS VL: ENVLTQSPAIMSASPGEKVTMTCSASSSVSYMYWYQQRPGSSPRLLIYDTSNLASGVPVRFSGSGSGTSYSLTISRMEAEDAATYYCQQWSSYPLTFGSGTKLEIK
T
